# system: Proto-oncogene tyrosine-protein kinase ROS (Homo sapiens, UniProt P08922, G2032R)
# assay_method_text: Inhibition of recombinant human ROS1 G2032R mutant preincubated for 5 to 10 mins followed by substrate and ATP addition and measured after 60 mins by TR-FRET assay
quantity: pIC50
Please note pIC50 is a logarithmic value: minus log10 of concentration in mol/L. Answer with that number alone.

If you can, please state the reported pIC50 value of C[C@H]1Nc2ccn3ncc(c3n2)C(=O)N[C@@]2(C)CC3=CC(F)=CC1C3O2 (stereo partly specified) .
9.47

* * *

# system: Proto-oncogene tyrosine-protein kinase ROS (Homo sapiens, UniProt P08922)
# Sequence (P08922 whole entry): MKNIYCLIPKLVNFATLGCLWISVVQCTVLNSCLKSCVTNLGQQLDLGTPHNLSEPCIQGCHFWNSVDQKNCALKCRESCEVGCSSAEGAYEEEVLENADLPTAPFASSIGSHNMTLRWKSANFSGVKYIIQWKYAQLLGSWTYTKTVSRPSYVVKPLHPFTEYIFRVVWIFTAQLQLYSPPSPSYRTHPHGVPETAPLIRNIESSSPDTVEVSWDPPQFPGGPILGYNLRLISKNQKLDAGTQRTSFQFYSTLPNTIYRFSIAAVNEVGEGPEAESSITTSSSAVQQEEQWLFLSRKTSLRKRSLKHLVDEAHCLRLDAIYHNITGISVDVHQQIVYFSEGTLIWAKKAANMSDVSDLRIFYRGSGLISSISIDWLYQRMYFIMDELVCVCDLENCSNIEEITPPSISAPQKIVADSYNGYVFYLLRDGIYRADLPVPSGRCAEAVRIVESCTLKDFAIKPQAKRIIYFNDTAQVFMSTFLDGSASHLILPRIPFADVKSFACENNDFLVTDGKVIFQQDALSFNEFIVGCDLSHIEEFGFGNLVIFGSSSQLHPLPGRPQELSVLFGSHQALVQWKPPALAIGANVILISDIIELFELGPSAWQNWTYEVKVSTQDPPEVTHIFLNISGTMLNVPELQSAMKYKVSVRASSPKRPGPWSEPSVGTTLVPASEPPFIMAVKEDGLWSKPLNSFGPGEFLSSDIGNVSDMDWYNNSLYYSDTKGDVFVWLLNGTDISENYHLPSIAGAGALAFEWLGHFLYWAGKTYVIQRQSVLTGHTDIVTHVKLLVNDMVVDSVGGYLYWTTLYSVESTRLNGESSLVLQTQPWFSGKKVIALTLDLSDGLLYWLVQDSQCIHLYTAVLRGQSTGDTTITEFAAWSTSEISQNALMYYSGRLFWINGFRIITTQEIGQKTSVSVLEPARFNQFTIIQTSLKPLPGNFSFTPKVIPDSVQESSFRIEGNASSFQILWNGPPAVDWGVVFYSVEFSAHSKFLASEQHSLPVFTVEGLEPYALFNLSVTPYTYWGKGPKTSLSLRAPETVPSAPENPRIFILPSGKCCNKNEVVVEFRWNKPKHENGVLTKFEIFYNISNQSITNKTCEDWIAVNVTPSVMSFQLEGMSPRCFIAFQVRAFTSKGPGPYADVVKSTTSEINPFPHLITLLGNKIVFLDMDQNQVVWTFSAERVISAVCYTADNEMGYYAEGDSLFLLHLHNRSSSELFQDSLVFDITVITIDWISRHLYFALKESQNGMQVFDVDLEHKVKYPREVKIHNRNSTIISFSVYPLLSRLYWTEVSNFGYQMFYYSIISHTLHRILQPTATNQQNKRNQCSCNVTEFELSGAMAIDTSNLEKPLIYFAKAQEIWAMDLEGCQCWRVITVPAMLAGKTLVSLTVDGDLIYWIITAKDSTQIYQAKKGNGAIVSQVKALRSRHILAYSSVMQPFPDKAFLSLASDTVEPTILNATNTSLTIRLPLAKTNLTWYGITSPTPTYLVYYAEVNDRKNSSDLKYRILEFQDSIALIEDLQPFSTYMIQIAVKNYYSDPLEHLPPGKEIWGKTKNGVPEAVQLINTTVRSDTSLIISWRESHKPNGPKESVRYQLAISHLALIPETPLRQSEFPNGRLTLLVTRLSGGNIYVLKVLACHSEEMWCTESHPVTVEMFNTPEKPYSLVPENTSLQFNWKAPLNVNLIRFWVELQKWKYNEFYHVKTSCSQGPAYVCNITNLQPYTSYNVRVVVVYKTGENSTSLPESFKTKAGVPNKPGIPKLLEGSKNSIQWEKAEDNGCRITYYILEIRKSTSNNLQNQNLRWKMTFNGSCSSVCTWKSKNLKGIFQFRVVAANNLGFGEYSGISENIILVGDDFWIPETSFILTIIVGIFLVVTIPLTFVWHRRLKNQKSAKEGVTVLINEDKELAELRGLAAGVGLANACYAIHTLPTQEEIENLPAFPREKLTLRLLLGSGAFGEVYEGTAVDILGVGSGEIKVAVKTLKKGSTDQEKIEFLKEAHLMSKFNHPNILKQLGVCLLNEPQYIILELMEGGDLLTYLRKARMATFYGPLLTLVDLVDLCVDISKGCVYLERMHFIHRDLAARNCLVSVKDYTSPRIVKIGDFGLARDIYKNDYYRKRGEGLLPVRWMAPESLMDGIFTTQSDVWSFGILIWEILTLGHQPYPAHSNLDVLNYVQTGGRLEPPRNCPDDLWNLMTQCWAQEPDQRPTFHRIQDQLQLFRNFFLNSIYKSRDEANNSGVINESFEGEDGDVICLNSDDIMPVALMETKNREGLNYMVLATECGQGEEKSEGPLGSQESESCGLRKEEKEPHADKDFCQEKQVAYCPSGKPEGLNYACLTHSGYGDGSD
# assay_method_text: Inhibition of wild type ROS1 (unknown origin) expressed in BaF3 cells incubated for 4 hrs
# Format: cell-based
quantity: pIC50
Notebook: values listed as pIC50 are -log10 of the concentration (mol/L).

Tell me the measured pIC50 of C[C@H]1Nc2ccn3ncc(c3n2)C(=O)NC[C@@H](CF)Oc2ccc(F)cc21 , please.
8.70

* * *

# system: Proto-oncogene tyrosine-protein kinase ROS (Homo sapiens, UniProt P08922)
# assay_method_text: Inhibition of human ROS1 using KKKSPGEYVNIEFG as substrate incubated for 120 mins in presence of [gamma-33P]-ATP
pIC50: −log10 of the molar value.
quantity: pIC50

Completed entries (count: 2):
CCOc1ccc(F)cc1[C@@H](C)Nc1ccn2ncc(C3=NOC(C)N3)c2n1 (stereo partly drawn) ... > 9.30
COc1ccc(F)cc1[C@@H](C)Nc1ccn2ncc(C3=NOC(C)(C)N3)c2n1 ... > 9.30

Now for another entry.
Please provide the recorded pIC50 for CC(C)Oc1ccc(F)cc1[C@@H](C)Nc1ccn2ncc(C3=NOC(C)N3)c2n1 (stereo partly drawn) , tested on Proto-oncogene tyrosine-protein kinase ROS (Homo sapiens, UniProt P08922).
> 9.30

* * *

# system: ALK tyrosine kinase receptor (Homo sapiens, UniProt Q9UM73)
# Sequence (Q9UM73 whole entry): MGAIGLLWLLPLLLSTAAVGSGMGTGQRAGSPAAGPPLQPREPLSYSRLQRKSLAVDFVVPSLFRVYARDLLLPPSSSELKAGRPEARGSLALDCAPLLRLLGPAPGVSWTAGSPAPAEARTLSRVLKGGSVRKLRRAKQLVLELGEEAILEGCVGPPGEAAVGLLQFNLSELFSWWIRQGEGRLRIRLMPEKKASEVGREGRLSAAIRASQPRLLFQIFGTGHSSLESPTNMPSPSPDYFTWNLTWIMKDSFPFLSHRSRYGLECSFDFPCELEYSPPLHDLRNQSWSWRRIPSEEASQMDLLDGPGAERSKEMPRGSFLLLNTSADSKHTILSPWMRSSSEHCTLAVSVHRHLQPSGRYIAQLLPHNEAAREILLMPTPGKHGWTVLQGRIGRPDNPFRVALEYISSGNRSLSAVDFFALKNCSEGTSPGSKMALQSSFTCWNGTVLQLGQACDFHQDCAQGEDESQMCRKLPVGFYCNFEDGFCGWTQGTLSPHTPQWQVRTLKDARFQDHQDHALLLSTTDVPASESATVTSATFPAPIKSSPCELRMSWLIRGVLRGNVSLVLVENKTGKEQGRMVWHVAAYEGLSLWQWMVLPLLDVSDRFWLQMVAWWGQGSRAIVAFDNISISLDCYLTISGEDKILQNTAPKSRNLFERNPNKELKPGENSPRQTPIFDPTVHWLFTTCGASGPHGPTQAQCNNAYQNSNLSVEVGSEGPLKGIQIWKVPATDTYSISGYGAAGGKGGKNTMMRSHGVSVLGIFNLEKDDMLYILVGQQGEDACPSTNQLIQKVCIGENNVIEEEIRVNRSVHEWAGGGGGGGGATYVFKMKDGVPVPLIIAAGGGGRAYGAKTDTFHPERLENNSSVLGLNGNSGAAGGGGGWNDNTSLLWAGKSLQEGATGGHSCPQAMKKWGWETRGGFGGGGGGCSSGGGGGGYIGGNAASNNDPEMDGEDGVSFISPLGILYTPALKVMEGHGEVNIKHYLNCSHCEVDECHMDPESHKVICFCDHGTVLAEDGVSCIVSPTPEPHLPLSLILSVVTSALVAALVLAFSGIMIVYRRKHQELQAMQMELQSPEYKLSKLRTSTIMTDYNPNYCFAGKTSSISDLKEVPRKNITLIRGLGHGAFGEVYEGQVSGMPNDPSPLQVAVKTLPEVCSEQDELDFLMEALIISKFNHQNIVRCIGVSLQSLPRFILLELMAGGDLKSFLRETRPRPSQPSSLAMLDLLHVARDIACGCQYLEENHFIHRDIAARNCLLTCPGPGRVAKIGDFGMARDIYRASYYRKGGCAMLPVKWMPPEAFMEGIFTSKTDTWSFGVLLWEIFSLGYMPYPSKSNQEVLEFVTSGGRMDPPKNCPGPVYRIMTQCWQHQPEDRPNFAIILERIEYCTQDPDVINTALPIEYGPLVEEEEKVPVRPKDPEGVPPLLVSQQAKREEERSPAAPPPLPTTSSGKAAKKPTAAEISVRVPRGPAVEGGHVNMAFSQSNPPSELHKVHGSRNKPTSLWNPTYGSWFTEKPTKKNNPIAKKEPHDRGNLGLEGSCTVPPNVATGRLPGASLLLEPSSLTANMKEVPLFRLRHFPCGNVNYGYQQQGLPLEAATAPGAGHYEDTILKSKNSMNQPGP
# assay_method_text: Inhibition of ALK (unknown origin) incubated for 1 hr by HTRF assay
quantity: IC50 (nM)
Respond with the bare value in nM.

Please look up its IC50: COc1cc(-n2cccc2CN2CCN(C)CC2)ccc1Nc1ncc(Cl)c(Nc2ccccc2NS(C)(=O)=O)n1
1.8

* * *

# system: UniProtKB P08922
# assay_method_text: Inhibition of recombinant human ROS1 preincubated for 5 to 10 mins followed by substrate and ATP addition and measured after 60 mins by TR-FRET assay
quantity: IC50 (nM)
Write the number in nM without appending the unit.

I have this compound here, C[C@H]1Nc2ccn3ncc(c3n2)C(=O)N[C@@]2(C)CC3=CC(F)=CC1C3O2 (stereo partly specified) , and I need its recorded IC50.
0.84

* * *

# system: ALK tyrosine kinase receptor (Homo sapiens, UniProt Q9UM73)
# assay_method_text: Inhibition of wild type ALK (unknown origin) expressed in BaF3 cells incubated for 4 hrs
# Assay type: cell-based
quantity: pIC50
Remember, pIC50 is on a log scale: it is -log10 of the molar concentration.

// pIC50 lookup, key: C[C@H]1Nc2ccn3ncc(c3n2)C(=O)NC[C@@H](CF)Oc2ccc(F)cc21
8.70

* * *

Catalogue of compounds with associated pIC50
# assay_method_text: Inhibition of human […] G1202R mutant using Casein as substrate incubated for 120 mins in presence of [gamma-33P]-ATP
pIC50: −log10 of the molar value.

Use these answered entries as a reference point.
CCOc1ccc(F)cc1[C@@H](C)Nc1ccn2ncc(C3=NOC(C)N3)c2n1 (stereo partly drawn) ... > 7.30
COc1ccc(F)cc1[C@@H](C)Nc1ccn2ncc(C3=NOC(C)(C)N3)c2n1 ... > 7.30

Now take the following compound into account.
Entry CC(C)Oc1ccc(F)cc1[C@@H](C)Nc1ccn2ncc(C3=NOC(C)N3)c2n1 (stereo partly drawn) has what pIC50?
> 7.30

* * *

# system: UniProtKB Q9UM73
# assay_method_text: Inhibition of wild-type ALK (unknown origin)
quantity: IC50 (pM)
Record the value in pM, omitting the unit from your answer.

Param item = O=C(Nc1n[nH]c2ncc(S(=O)(=O)c3cccc(F)c3)cc12)c1ccc(N2CCOCC2)cc1 ; retrieve measured IC50.
600

* * *

# system: TGF-beta receptor type-1 (Homo sapiens, UniProt P36897)
# Sequence (P36897 whole entry): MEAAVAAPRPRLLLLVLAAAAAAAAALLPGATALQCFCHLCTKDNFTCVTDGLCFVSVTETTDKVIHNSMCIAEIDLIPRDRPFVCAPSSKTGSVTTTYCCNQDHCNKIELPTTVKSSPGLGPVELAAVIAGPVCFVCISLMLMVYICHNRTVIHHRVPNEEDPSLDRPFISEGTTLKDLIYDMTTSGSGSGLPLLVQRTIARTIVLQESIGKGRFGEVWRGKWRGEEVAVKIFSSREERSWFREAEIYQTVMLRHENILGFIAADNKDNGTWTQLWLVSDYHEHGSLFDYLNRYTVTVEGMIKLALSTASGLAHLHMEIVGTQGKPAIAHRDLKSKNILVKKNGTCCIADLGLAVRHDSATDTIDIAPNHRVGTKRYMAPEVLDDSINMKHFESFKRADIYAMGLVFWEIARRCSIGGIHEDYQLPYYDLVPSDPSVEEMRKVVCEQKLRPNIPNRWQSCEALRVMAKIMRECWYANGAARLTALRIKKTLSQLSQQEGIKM
quantity: IC50

Fill in: IC50 of CCOc1ccc(F)cc1[C@@H](C)Nc1ccn2ncc(C3=NOC(C)N3)c2n1 (stereo partly specified) is ___
< 50 nM

* * *

# system: Proto-oncogene tyrosine-protein kinase ROS (Homo sapiens, UniProt P08922)
# assay_method_text: Inhibition of ROS1 (unknown origin) incubated for 1 hr by HTRF assay
quantity: pIC50
// returns pIC50 (minus log10 of molar concentration), number only

Fill in: pIC50 of COc1cc(-n2cccc2CN2CCN(C)CC2)ccc1Nc1ncc(Cl)c(Nc2ccccc2NS(C)(=O)=O)n1 is ___
8.44

The measurements presented in this section are drawn from ChEMBL document CHEMBL5620350.
